test system: CGS 21680-induced catalepsy in mice; test: Activity on CGS 21680-induced Catalepsy; type: in vivo, mouse (male ddY); conditions: 10 mg/kg oral, 10 animals, maximum 50 points; control 48
Total score (catalepsy) reference

Compound: Nc1nc(N2CCN(C/C=C/c3ccccc3)CC2)cc2nc(-c3ccco3)nn12 [Compound 88]
Total score (catalepsy): 0
--
Compound: CCOCCN1CCN(c2cc3nc(-c4ccco4)nn3c(N)n2)CC1 [Compound 96]
Total score (catalepsy): 7
--
Compound: Nc1nc(N2CCN(CCCF)CC2)cc2nc(-c3ccco3)nn12 [Compound 127]
Total score (catalepsy): 3
--
Compound: Nc1nc(N2CCN(CCF)CC2)cc2nc(-c3ccco3)nn12 [Compound 126]
Total score (catalepsy): 2
--
Compound: CCN1CCN(c2cc3nc(-c4ccco4)nn3c(N)n2)CC1 [Compound 60]
Total score (catalepsy): 10
--
Compound: CCC(C)N1CCN(c2cc3nc(-c4ccco4)nn3c(N)n2)CC1 (racemic) [Compound 140]
Total score (catalepsy): 13
--
Compound: Cc1c(N2CCN(CCO)CC2)nc(N)n2nc(-c3ccco3)nc12 [Compound 222]
Total score (catalepsy): 9
--
Compound: C[C@@H]1CN(c2cc3nc(-c4ccco4)nn3c(N)n2)C[C@H](C)N1Cc1ccccc1 [Compound 116]
Total score (catalepsy): 5
--
Compound: Nc1nc(N2CCN(Cc3ccsc3)CC2)cc2nc(-c3ccco3)nn12 [Compound 146]
Total score (catalepsy): 3

---

biological target: adenosine A2A receptor (Rattus norvegicus); construct: from tissue; host or cells: rat corpus striatum, washed membrane suspension; experiment: Adenosine receptor binding activity (adenosine A2A receptor binding test), 3H-CGS 21680 binding; details: 2 h; 10^-7 M; read-out: A2A receptor inhibition ratio (%)
Structures can show the parent of a compound that is named as a salt.
Measured inhibition at 0.1 µM by item

Compound: CC(CO)N1CCN(c2cc3nc(-c4ccco4)nn3c(N)n2)CC1 (racemic)
Experimental target: adenosine A2A receptor (Rattus norvegicus)
inhibition at 0.1 µM: 52%
//
Compound: Nc1nc(N2CCN(CCF)CC2)cc2nc(-c3ccco3)nn12
Experimental target: adenosine A2A receptor (Rattus norvegicus)
inhibition at 0.1 µM: 60%
//
Compound: Nc1nc(N2CCN(CCCOCc3ccccc3)CC2)cc2nc(-c3ccco3)nn12 [Compound 102, hydrochloride]
Experimental target: adenosine A2A receptor (Rattus norvegicus)
inhibition at 0.1 µM: 72%
//
Compound: Nc1nc(N2CCN(CC3CCCCC3)CC2)cc2nc(-c3ccco3)nn12
Experimental target: adenosine A2A receptor (Rattus norvegicus)
inhibition at 0.1 µM: 66%
//
Compound: COc1cc(CN2CCN(c3cc4nc(-c5ccco5)nn4c(N)n3)CC2)cc(OC)c1
Experimental target: adenosine A2A receptor (Rattus norvegicus)
inhibition at 0.1 µM: 73%
//
Compound: Nc1nc(N2CCN(CC#Cc3ccccc3)CC2)cc2nc(-c3ccco3)nn12 [Compound 89, hydrochloride]
Experimental target: adenosine A2A receptor (Rattus norvegicus)
inhibition at 0.1 µM: 52%
//
Compound: Nc1nc(N2CCN(CCCc3ccccc3)CC2)cc2nc(-c3ccco3)nn12
Experimental target: adenosine A2A receptor (Rattus norvegicus)
inhibition at 0.1 µM: 82%
//
Compound: C[C@@H]1CN(c2cc3nc(-c4ccco4)nn3c(N)n2)C[C@H](C)N1C [Compound 115, hydrochloride]
Experimental target: adenosine A2A receptor (Rattus norvegicus)
inhibition at 0.1 µM: 22%
//
Compound: CC(C)C(=O)c1cnc(N)n2nc(-c3ccco3)nc12
Experimental target: adenosine A2A receptor (Rattus norvegicus)
inhibition at 0.1 µM: 48%
//
Compound: CNC(=O)c1cnc(N)n2nc(-c3ccco3)nc12
Experimental target: adenosine A2A receptor (Rattus norvegicus)
inhibition at 0.1 µM: 90%
//
Compound: COc1ccc(CN2CCN(c3cc4nc(-c5ccco5)nn4c(N)n3)CC2)cc1OC
Experimental target: adenosine A2A receptor (Rattus norvegicus)
inhibition at 0.1 µM: 77%
//
Compound: Nc1nc(N2CCN(Cc3c(Cl)cccc3Cl)CC2)cc2nc(-c3ccco3)nn12 [Compound 80, hydrochloride]
Experimental target: adenosine A2A receptor (Rattus norvegicus)
inhibition at 0.1 µM: 93%
//
Compound: N#Cc1ccccc1CSc1cc2nc(-c3ccco3)nn2c(N)n1
Experimental target: adenosine A2A receptor (Rattus norvegicus)
inhibition at 0.1 µM: 91%
//
Compound: C[C@@H]1CN(c2cc3nc(-c4ccco4)nn3c(N)n2)C[C@H](C)N1CCO
Experimental target: adenosine A2A receptor (Rattus norvegicus)
inhibition at 0.1 µM: 29%
//
Compound: Nc1nc(Oc2ccc(Cl)cc2)cc2nc(-c3ccco3)nn12
Experimental target: adenosine A2A receptor (Rattus norvegicus)
inhibition at 0.1 µM: 82%
//
Compound: Cc1nc(CN2CCN(c3cc4nc(-c5ccco5)nn4c(N)n3)CC2)cs1
Experimental target: adenosine A2A receptor (Rattus norvegicus)
inhibition at 0.1 µM: 66%
//
Compound: Nc1nc(N2CCN(Cc3cccc(Cl)c3)CC2)cc2nc(-c3ccco3)nn12
Experimental target: adenosine A2A receptor (Rattus norvegicus)
inhibition at 0.1 µM: 62%

---

tested on: haloperidol-induced catalepsy in mice; experiment: Activity on haloperidol-induced Catalepsy; format: in vivo, mouse (male ddY); details: 10 mg/kg oral; catalepsy score 4 points or less in 10 cases

Smiles input: CN1CCN(c2cc3nc(-c4ccco4)nn3c(N)n2)CC1
Number of Animals showing remission: 7
--
Smiles input: Nc1nc(N2CCN(CCc3ccccc3)CC2)cc2nc(-c3ccco3)nn12
Number of Animals showing remission: 10
--
Smiles input: COc1cccc(OC)c1Oc1cc2nc(-c3ccco3)nn2c(N)n1
Number of Animals showing remission: 5
--
Smiles input: Nc1nc(N2CCN(Cc3ccccc3)CC2)cc2nc(-c3ccco3)nn12
Number of Animals showing remission: 10
--
Smiles input: COc1ccc(Oc2cc3nc(-c4ccco4)nn3c(N)n2)cc1OC
Number of Animals showing remission: 10
--
Smiles input: CCOC(=O)c1cnc(N)n2nc(-c3ccco3)nc12
Number of Animals showing remission: 5

---

biological target: adenosine A2A receptor (Rattus norvegicus, UniProt P30543); construct: from tissue; host or cells: rat corpus striatum, washed membrane suspension; assay: Adenosine receptor binding activity (adenosine A2A receptor binding test), 3H-CGS 21680 binding; details: 2 h; 10^-7 M; read-out: A2A receptor inhibition ratio (%)
Sequence (P30543 whole entry): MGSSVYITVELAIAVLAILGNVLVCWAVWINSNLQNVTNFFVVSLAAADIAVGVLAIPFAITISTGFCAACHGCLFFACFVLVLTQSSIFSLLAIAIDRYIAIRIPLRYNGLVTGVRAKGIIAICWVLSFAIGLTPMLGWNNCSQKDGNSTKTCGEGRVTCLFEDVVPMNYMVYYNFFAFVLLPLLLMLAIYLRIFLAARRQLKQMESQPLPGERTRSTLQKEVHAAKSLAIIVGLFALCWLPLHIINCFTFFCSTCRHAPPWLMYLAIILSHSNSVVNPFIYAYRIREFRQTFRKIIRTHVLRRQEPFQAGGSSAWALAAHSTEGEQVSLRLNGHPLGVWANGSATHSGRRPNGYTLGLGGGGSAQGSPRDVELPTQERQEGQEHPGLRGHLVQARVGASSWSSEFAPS
Response key: Fulfilled means inhibition at 0.1 µM >= 80%; Not fulfilled means inhibition at 0.1 µM < 80%.

Smiles input: Nc1nc(SCc2ccccc2[N+](=O)[O-])cc2nc(-c3ccco3)nn12
Discrete label: Not fulfilled

Smiles input: CCCCN1CCN(c2cc3nc(-c4ccco4)nn3c(N)n2)CC1
Discrete label: Not fulfilled

Smiles input: COc1cc(OC)cc(Oc2cc3nc(-c4ccco4)nn3c(N)n2)c1
Discrete label: Fulfilled

---

target: adenosine A2A receptor (Rattus norvegicus, UniProt P30543); construct: from tissue; host or cells: rat corpus striatum, washed membrane suspension; test: Adenosine receptor binding activity (adenosine A2A receptor binding test), 3H-CGS 21680 binding; details: 2 h; 10^-7 M; read-out: A2A receptor inhibition ratio (%)
Counter-ions that a name gives are not always drawn.
Observation type: inhibition at 0.1 µM (%)

Compound: COc1ccc(CCN2CCN(c3cc4nc(-c5ccco5)nn4c(N)n3)CC2)cc1OC
Observation type: inhibition at 0.1 µM
Observed value: 80
--
Compound: Nc1nc(N2CCN(CCOCc3ccccc3)CC2)cc2nc(-c3ccco3)nn12 [Compound 97, hydrochloride]
Observation type: inhibition at 0.1 µM
Observed value: 79
--
Compound: Nc1nc(N2CCN(Cc3ccccc3F)CC2)cc2nc(-c3ccco3)nn12
Observation type: inhibition at 0.1 µM
Observed value: 85

---

Measured inhibition at 0.1 µM, listed per entry for reference.
target: adenosine A2A receptor (Rattus norvegicus); construct: from tissue; host or cells: rat corpus striatum, washed membrane suspension; assay: Adenosine receptor binding activity (adenosine A2A receptor binding test), 3H-CGS 21680 binding; conditions: 2 h; 10^-7 M; read-out: A2A receptor inhibition ratio (%)
Counter-ions that a name gives are not always drawn.
Observation type: inhibition at 0.1 µM

Compound: COc1ccc(CNc2nc(Sc3ccccc3)cc3nc(-c4ccco4)nn23)cc1OC [Compound 10]
Observation type: inhibition at 0.1 µM
Observed value: 54%

Compound: CC(C)NC(=O)c1cnc(N)n2nc(-c3ccco3)nc12 [Compound 165]
Observation type: inhibition at 0.1 µM
Observed value: 103%

Compound: CCOCCN1CCN(c2cc3nc(-c4ccco4)nn3c(N)n2)CC1 [Compound 96]
Observation type: inhibition at 0.1 µM
Observed value: 58%

Compound: Nc1nc(N2CCN(Cc3cnns3)CC2)cc2nc(-c3ccco3)nn12 [Compound 144]
Observation type: inhibition at 0.1 µM
Observed value: 58%

Compound: CC(c1ccccc1)N1CCN(c2cc3nc(-c4ccco4)nn3c(N)n2)CC1 (stereo not drawn) [Compound 73]
Observation type: inhibition at 0.1 µM
Observed value: 86%

Compound: COc1cc(CN2CCN(c3cc4nc(-c5ccco5)nn4c(N)n3)CC2)cc(OC)c1OC [Compound 77]
Observation type: inhibition at 0.1 µM
Observed value: 77%

Compound: Nc1nc(N2CCN(CCOCCO)CC2)cc2nc(-c3ccco3)nn12 [Compound 103]
Observation type: inhibition at 0.1 µM
Observed value: 53%

Compound: Nc1nc(N2CCN(Cc3cccnc3)CC2)cc2nc(-c3ccco3)nn12 [Compound 70]
Observation type: inhibition at 0.1 µM
Observed value: 66%

Compound: Cc1ccc(CSc2cc3nc(-c4ccco4)nn3c(N)n2)cc1 [Compound 186]
Observation type: inhibition at 0.1 µM
Observed value: 52%

Compound: Nc1nc(N2CCN(Cc3ccc4c(c3)OCO4)CC2)cc2nc(-c3ccco3)nn12 [Compound 66]
Observation type: inhibition at 0.1 µM
Observed value: 79%

Compound: CC(C)OCCCN1CCN(c2cc3nc(-c4ccco4)nn3c(N)n2)CC1 [Compound 101]
Observation type: inhibition at 0.1 µM
Observed value: 46%

Compound: CCC(=O)c1cnc(N)n2nc(-c3ccco3)nc12 [Compound 158]
Observation type: inhibition at 0.1 µM
Observed value: 92%

Compound: Nc1nc(N2CCN(Cc3ccccc3Cl)CC2)cc2nc(-c3ccco3)nn12 [Compound 68]
Observation type: inhibition at 0.1 µM
Observed value: 90%

Compound: Nc1nc(N2CCN(C/C=C/c3ccccc3)CC2)cc2nc(-c3ccco3)nn12 [Compound 88]
Observation type: inhibition at 0.1 µM
Observed value: 57%

Compound: CCCN1CCN(c2cc3nc(-c4ccco4)nn3c(N)n2)CC1 [Compound 123]
Observation type: inhibition at 0.1 µM
Observed value: 42%

Compound: COCCCN1CCN(c2cc3nc(-c4ccco4)nn3c(N)n2)CC1 [Compound 99]
Observation type: inhibition at 0.1 µM
Observed value: 59%

Compound: Nc1nc(N2CCN(Cc3ccccn3)CC2)cc2nc(-c3ccco3)nn12 [Compound 84]
Observation type: inhibition at 0.1 µM
Observed value: 63%

Compound: C=CCN1CCN(c2cc3nc(-c4ccco4)nn3c(N)n2)CC1 [Compound 124]
Observation type: inhibition at 0.1 µM
Observed value: 59%

Compound: CC(O)CN1CCN(c2cc3nc(-c4ccco4)nn3c(N)n2)CC1 (racemic) [Compound 105]
Observation type: inhibition at 0.1 µM
Observed value: 41%

Compound: COc1cccc(OC)c1Oc1cc2nc(-c3ccco3)nn2c(N)n1 [Compound 32]
Observation type: inhibition at 0.1 µM
Observed value: 89%

Compound: Nc1nc(SCc2ccccn2)cc2nc(-c3ccco3)nn12 [Compound 182]
Observation type: inhibition at 0.1 µM
Observed value: 82%

Compound: Nc1nc(N2CCN(c3ccccn3)CC2)cc2nc(-c3ccco3)nn12 [Compound 93]
Observation type: inhibition at 0.1 µM
Observed value: 36%

Compound: COc1ccc(CCCN2CCN(c3cc4nc(-c5ccco5)nn4c(N)n3)CC2)cc1OC [Compound 86]
Observation type: inhibition at 0.1 µM
Observed value: 83%

Compound: C[C@@H]1CN(c2cc3nc(-c4ccco4)nn3c(N)n2)C[C@H](C)N1CCCc1ccccc1 [Compound 119]
Observation type: inhibition at 0.1 µM
Observed value: 51%

Compound: Nc1nc(N2CCN(CCOc3ccccc3)CC2)cc2nc(-c3ccco3)nn12 [Compound 90, hydrochloride]
Observation type: inhibition at 0.1 µM
Observed value: 82%

Compound: Nc1nc(SCc2ccccc2)cc2nc(-c3ccco3)nn12 [Compound 183]
Observation type: inhibition at 0.1 µM
Observed value: 82%

Compound: C[C@@H]1CN(c2cc3nc(-c4ccco4)nn3c(N)n2)C[C@H](C)N1Cc1ccccc1 [Compound 116]
Observation type: inhibition at 0.1 µM
Observed value: 38%

Compound: COCCN1[C@H](C)CN(c2cc3nc(-c4ccco4)nn3c(N)n2)C[C@@H]1C [Compound 117]
Observation type: inhibition at 0.1 µM
Observed value: 38%

Compound: CCNC(=O)c1cnc(N)n2nc(-c3ccco3)nc12 [Compound 169]
Observation type: inhibition at 0.1 µM
Observed value: 96%

Compound: CN1CCN(c2cc3nc(-c4ccco4)nn3c(N)n2)CC1 [Compound 40]
Observation type: inhibition at 0.1 µM
Observed value: 50%

Compound: Nc1nc(N2CCN(CCCF)CC2)cc2nc(-c3ccco3)nn12 [Compound 127]
Observation type: inhibition at 0.1 µM
Observed value: 59%

Compound: Nc1nc(N2CCN(Cc3ccncc3)CC2)cc2nc(-c3ccco3)nn12 [Compound 71]
Observation type: inhibition at 0.1 µM
Observed value: 73%

Compound: CCOCCCN1CCN(c2cc3nc(-c4ccco4)nn3c(N)n2)CC1 [Compound 100]
Observation type: inhibition at 0.1 µM
Observed value: 54%

Compound: COc1ccc(OC)c(CN2CCN(c3cc4nc(-c5ccco5)nn4c(N)n3)CC2)c1 [Compound 75]
Observation type: inhibition at 0.1 µM
Observed value: 84%

Compound: Nc1nc(N2CCN(CCCc3cccnc3)CC2)cc2nc(-c3ccco3)nn12 [Compound 87, hydrochloride]
Observation type: inhibition at 0.1 µM
Observed value: 77%

Compound: Nc1nc(N2CCN(c3nc4ccccc4o3)CC2)cc2nc(-c3ccco3)nn12 [Compound 94]
Observation type: inhibition at 0.1 µM
Observed value: 37%
